# Tested on: PC-3
# Assay details: NCI tumour cell line growth inhibition, 48 h
Activity calls are given as the source filed them. Rule as the data show it: active = GI50 up to about 1.1 µM and inactive = higher.
Hi! Could you answer with just one of these? yes (active), no (inactive)

// below: answered molecules
> print(dat)
                                   molecule  group
1  C[Si](C)(c1ccc(C(=O)O)cc1)c1ccc(C(=O)O)cc1     no
2  Nc1ccc(Oc2ccc(C34CC5CC6C3CC3CC4C(C5)C6(c4ccc(Oc5ccc(N)c(O)c5)cc4)C3)cc2)cc1O     no
3  COC12CCCN1c1ccn(Cc3ccccc3)c(=O)c1C2=O (centres undefined)     no
4  c1ccc2c(c1)c1c(c3ccccc32)CN2CCCC2C1 (centres undefined)     no
5  Cc1cc(N(CCC#N)CCC#N)ccc1/C=C1N=C(/C=C\c2ccccc2)N(c2ccc(Cl)cc2)C\1=O    yes
6  O=C1/C(=N\n2c(S)nnc2-c2ccncc2)c2cc(Cl)ccc2N1CN1CCCCC1     no
7          COc1cc(Nc2ccc3c(c2)CCC3)nc(OC)n1     no
8  Cc1nnc(-n2c(O)cc(=O)n(-c3ccccc3)c2=S)nc1/C=C/c1ccc(N(C)C)cc1     no

Prompt line: Recorded test outcome, item C[C@]12CCC(=O)C=C1C[C@@H](O)[C@@H]1[C@@H]2CC[C@@]2(C)[C@H]1CC[C@]2(C)O
Response line: no

====

# System: SK-MEL-28
# Assay details: NCI tumour cell line growth inhibition, 48 h
Calls of active or inactive are those of the source. Rule as the data show it: active = GI50 up to about 1.1 µM and inactive = higher.
Collected GI50 values appear next to each entry.

Worked examples, 5 molecules total:
Molecule	Measurement kind	Recorded value
CC1C(c2ccccc2O)c2cc3c(cc2OC1N1CCOCC1)OCO3 (stereo not drawn)	GI50	40.6 µM (inactive)
C=C(C)[C@H]1C2=CC(C)=C(O2)[C@@H](O[C@@H]2c3oc(cc3C)[C@H](C(=C)C)[C@H]3C=C(CC[C@H]2C(=C)C)C(=O)O3)[C@H](C(=C)C)CCC2=C[C@H]1OC2=O	GI50	> 100 µM (inactive)
C=CCC(CNC(=O)OCc1ccccc1)OC(=O)OCc1ccccc1 (stereo not drawn)	GI50	> 100 µM (inactive)
Cc1c2ccncc2c(C)c2c1[nH]c1ccc(OCCN(C)C)cc12	GI50	0.577 µM (active)
CCn1c2ccc(O)c(C(=O)OC)c2c2cc3ccccc3c(O)c21	GI50	26.2 µM (inactive)

Reported GI50 ( COc1ccc(/C=C2\N=C(N3CCOCC3)NC2=O)cc1 ) = > 100 µM (inactive)

Reported GI50 ( O=[N+]([O-])CCc1cccc([N+](=O)[O-])c1 ) = > 100 µM (inactive)

Reported GI50 ( COc1ccc(C(=O)/C=C/c2ccc(OCCSCCCCCCCCCCSCCOc3ccc(/C=C/C(=O)c4ccc(OC)cc4)cc3)cc2)cc1 ) = > 100 µM (inactive)

====

Collected GI50 values appear next to each entry.
# Tested on: KM12
# Assay details: NCI tumour cell line growth inhibition, 48 h
Activity calls are given as the source filed them. No stated cut-off is given here; in the data, active = GI50 up to about 1.1 µM and inactive = higher.

Worked examples, 5 compounds total:
> print(dat)
                                   compound  measurement.kind       recorded.value
1           Cc1ccc(C(=O)/C=C/c2ccccc2Cl)cc1              GI50   15.7 µM (inactive)
2  C#CCNC(=O)NC(CCCNC(=O)OCc1ccccc1)C(=O)OCc1ccccc1 (stereo unspecified)              GI50  > 100 µM (inactive)
3  CC1(C)CC(C2CC(C)(C)CC(C)(C)[C@H]2O)[C@@H](O)C(C)(C)C1 (stereo partly specified)              GI50  > 100 µM (inactive)
4  NC(CP(=O)(O)O)C(=O)O (stereo unspecified)              GI50  > 100 µM (inactive)
5  O=c1c2ccccc2nc(-c2cccc([N+](=O)[O-])c2)n1O              GI50   36.5 µM (inactive)

Please look at the following compound next.
I looked up N/C(=N\c1ccc(Cl)cc1)NS(=O)(=O)c1cccc2nsnc12 and its GI50 for KM12 was 34.3 µM (inactive)

====

# Tested on: RXF 393
# Assay details: NCI tumour cell line growth inhibition, 48 h
Calls of active or inactive are those of the source. No stated cut-off is given here; in the data, active = GI50 up to about 1.1 µM and inactive = higher.
Measurement kind: GI50

Molecule	Recorded value
CNC(=O)N(CCCCC(NC(C)=O)C(=O)NCc1ccccc1)Cc1ccccc1 (stereo not given)	> 100 µM (inactive)
CC(=O)OC1CCC2(C)C(=CC(C3C=C4CC(OC(C)=O)CCC4(C)C4=C3C3CC5OC6(CCC(C)CO6)C(C)C5C3(C)CC4)C3=C2CCC2(C)C3CC3OC4(CCC(C)CO4)C(C)C32)C1 (stereo not given)	16.1 µM (inactive)
Cc1ccc(N/N=C2\C3=C(CCC(C)(C)O3)C(=O)c3ccccc32)cc1	32.4 µM (inactive)
CC(=O)OCC1OC(N2C(S)=C(C#N)C(c3ccco3)C(C(C)=O)=C2c2ccccc2)C(OC(C)=O)C(OC(C)=O)C1OC(C)=O (stereo not given)	> 100 µM (inactive)
CCOC(=O)CC(=O)C(=O)NN=C1NCCCN1	> 100 µM (inactive)

Reported GI50 ( CN(N=O)c1nc2c(C(N)=O)ncn2s1 ) = > 100 µM (inactive)

Reported GI50 ( C=C1C(=O)O[C@@H]2/C=C(/C)[C@@H](OC(C)=O)C/C=C(\C)C(O)[C@@H](OC(=O)/C(C)=C\C)C12 (stereo not given in full) ) = 26.8 µM (inactive)

Reported GI50 ( COc1cc(C(=O)CC2OC(=O)C(Cl)=C2Cl)ccc1Cl (stereo not given) ) = > 100 µM (inactive)

Reported GI50 ( Nc1ccc(S(=O)(=O)c2ccc(NCN3C(=O)NC(=O)C(=O)C3=O)cc2)cc1 ) = > 100 µM (inactive)

Reported GI50 ( O=C1O[C@@H](c2ccccc2)C[C@@H]1CN1CCOCC1 ) = > 100 µM (inactive)

Reported GI50 ( CC(C)(C)C(=O)N1C(C(=O)O)Cc2ccccc2[C@@H]1Cc1ccccc1 (stereo not given in full) ) = > 100 µM (inactive)

Reported GI50 ( CC(=O)c1ccc(NC(=O)/C(CC(=O)/C=C/c2ccccc2)=N/NC(N)=S)cc1 ) = > 100 µM (inactive)

Reported GI50 ( C=CC(Br)(CBr)CCC(Br)C(C)C (stereo not given) ) = 5.89 µM (inactive)

Reported GI50 ( CN(CCc1ccc(N)cc1)[C@H]1CCCC[C@H]1N1CCCC1 ) = > 100 µM (inactive)

Reported GI50 ( C[C@]12CCC(=O)C=C1C[C@@H](O)[C@@H]1[C@@H]2CC[C@@]2(C)[C@H]1CC[C@]2(C)O ) = > 100 µM (inactive)

Reported GI50 ( NNC(=O)CS(=O)(=O)Nc1ncccn1 ) = > 100 µM (inactive)

Reported GI50 ( C/C(=C\COP(=O)(O)OP(=O)(O)O)CCCOCc1ccccc1 ) = > 100 µM (inactive)

====

# System: PC-3
# Assay details: NCI tumour cell line growth inhibition, 48 h
Activity calls are given as the source filed them. Cut-off read from the data, not from the text of the source: active = GI50 up to about 1.1 µM and inactive = higher.
Hi! Could you answer with just one of these? active, inactive

Molecule	Group
CN(CCc1ccc(Cl)c(Cl)c1)CCN(C)CCN1CCCC1	inactive

Prompt line: Recorded test outcome, item Cc1cc(C)c2c(O)cc(-c3cccc4ccccc34)nc2n1
Response line: active

Prompt line: Recorded test outcome, item CCCCCCc1cc2cc(C(=O)Nc3ccccc3)c(=N)oc2cc1O
Response line: inactive

Prompt line: Recorded test outcome, item CC1C(c2ccccc2O)c2cc3c(cc2OC1N1CCOCC1)OCO3 (stereo unspecified)
Response line: inactive

Prompt line: Recorded test outcome, item COC(O)C(=O)c1c2c(cc3c1CC1(Cc4cc5c(cc4C1)CCC5)C3)CCC2 (stereo unspecified)
Response line: inactive

Prompt line: Recorded test outcome, item CCOC(=O)CC[C@H](N)C(=O)N[C@@H](Cc1ccc(N(CCCl)CCCl)cc1)C(=O)OCC
Response line: inactive

Prompt line: Recorded test outcome, item CCOC(=S)SC/C(=N\OC(C)(C)OC)c1ccccc1
Response line: inactive

Prompt line: Recorded test outcome, item C=CC(Br)(CBr)CCC(Br)C(C)C (stereo unspecified)
Response line: inactive

====

# Test system: NCI-H226
# Assay details: NCI tumour cell line growth inhibition, 48 h
Activity calls are given as the source filed them. Rule as the data show it: active = GI50 up to about 1.1 µM and inactive = higher.
Collected GI50 values appear next to each entry.

Worked examples, 2 molecules total:
> print(dat)
                                   molecule  measurement.kind       recorded.value
1           CCOC(=O)N(NC(=O)NC(C)C)c1ccccc1              GI50  > 100 µM (inactive)
2  CC(NNC(=O)c1ccncc1)c1cccc(C(F)(F)F)c1 (stereo not given)              GI50  > 100 µM (inactive)

Reported GI50 ( O=C1c2cn[nH]c2N=C(Nc2ccccc2)C1/N=C/c1ccc([N+](=O)[O-])cc1 (stereo not given) ) = > 10 µM (inactive)

Reported GI50 ( Cc1nc2sc(C(=O)c3ccc(Cl)cc3)c(N)c2c(-c2ccccc2Cl)c1C(=O)Nc1ccccc1 ) = 17.7 µM (inactive)

Reported GI50 ( CCOC(=O)n1cncc1CC(NC(=O)Cc1c(C(=O)C=C(C)C)[nH]c2ccccc12)C(=O)OC (stereo not given) ) = 20.8 µM (inactive)

The reported measurements were obtained from ChEMBL document CHEMBL1201862.
